Method description: logP by HPLC on reversed-phase column (EEC Directive 79/831 Annex V.A8)
Type: physicochemical
Condition: HPLC on reversed-phase column (C 18), 40° C., 0.1% aqueous formic acid and acetonitrile, linear gradient 10% to 90% acetonitrile
Quantity: logP

Consider the reported logP for these compounds:
{"Line notation": "COCCN(Cc1ccc(Cl)nc1)C(=O)c1c(C(F)F)nn(C)c1F", "logP": 2.02}
{"Line notation": "Cc1ccsc1CN(C(=O)c1c(C(F)F)nn(C)c1Cl)C1CCCC1", "logP": 3.61}

(A) CN(Cc1cnn(-c2ccccc2)c1)C(=O)c1c(C(F)F)nn(C)c1F
(B) Cn1nc(C(F)F)c(C(=O)N(Cc2cccnc2)CC(F)(F)F)c1F
I'd appreciate it if you could identify which of A and B has the greater logP. Select an item and report its label.
A
(A: 2.26, B: 1.20)

(1) CN(Cc1cc(CC(C)(C)C)no1)C(=O)c1c(C(F)F)nn(C)c1F
(2) CN(Cc1cncc(Cl)c1)C(=O)c1c(C(F)F)nn(C)c1F
Of 1 and 2 , whose reported logP is numerically smaller? Select an item and report its label.
2
(2: 1.76, 1: 2.75)

###

Method description: logP by HPLC on reversed-phase column (EEC Directive 79/831 Annex V.A8)
Type: physicochemical
Condition: HPLC on reversed-phase column (C 18), 40° C., 0.1% aqueous formic acid and acetonitrile, linear gradient 10% to 90% acetonitrile
Quantity: logP

Consider the reported logP for these compounds:
{"Compound": "Cc1ccoc1CN(C)C(=O)c1c(C(F)F)nn(C)c1F", "Quantity": "logP", "Number": 2.18}
{"Compound": "CN(Cc1nc(-c2ccccc2)no1)C(=O)c1c(C(F)F)nn(C)c1F", "Quantity": "logP", "Number": 2.58}
{"Compound": "Cn1nc(C(F)F)c(C(=O)NC2(c3cccnc3)CCCC2)c1Cl", "Quantity": "logP", "Number": 0.96}

(P) CCN(Cc1nonc1C)C(=O)c1c(C(F)F)nn(C)c1F
(Q) CC(NC(=O)c1c(C(F)F)nn(C)c1F)c1cc2ccccc2s1 (racemic)
Of P and Q , whose reported logP is numerically smaller? Select an item and report its label.
P

###

Tested on: Alternaria solani
Method description: in vivo preventive test on Alternaria solani (tomato)
Condition: 500 ppm of active ingredient, evaluated 7 days after inoculation
Below, each entry is listed with its recorded Efficacy.
Your answer should be a plain number; it is taken to be in %.

Consider the reported Efficacy for these compounds:
{"Compound": "Cc1ccsc1CN(C(=O)c1c(C(F)F)nn(C)c1F)C1CC1", "Readout unit": "%", "Efficacy": 95}
{"Compound": "Cn1nc(C(F)F)c(C(=O)N(Cc2cccc3ccsc23)C2CC2)c1Cl", "Readout unit": "%", "Efficacy": 95}
{"Compound": "Cn1nc(C(F)F)c(C(=O)N(Cc2c(C(F)(F)F)nn(C)c2OC(F)F)C2CC2)c1F", "Readout unit": "%", "Efficacy": 95}

Efficacy reported for this compound Cn1nc(C(F)F)c(C(=O)N(Cc2cc(-c3cc(F)c(F)c(F)c3)no2)C2CC2)c1F : 100

Efficacy reported for this compound Cn1nc(C(F)F)c(C(=O)N(Cc2ccco2)C2CC2)c1F : 80

Efficacy reported for this compound Cn1nc(C(F)F)c(C(=O)N(Cc2nc3ccccc3s2)C2CC2)c1F : 80

Efficacy reported for this compound CC(c1cccc2ccsc12)N(C(=O)c1c(C(F)F)nn(C)c1F)C1CC1 (stereo not drawn) : 95

Efficacy reported for this compound Cc1sc(-c2ccccc2)cc1C(C)N(C(=O)c1c(C(F)F)nn(C)c1F)C1CC1 (stereo not drawn) : 95

Efficacy reported for this compound Cc1c(CN(C(=O)c2c(C(F)F)nn(C)c2F)C2CC2)sc2ccccc12 : 95
